Reference for the values: ChEMBL document CHEMBL4513216

- Assay comment: Toxicity liver stage against HepG2, at 10uM
- Format: cell-based
- Set-up: test concentration 10 uM, cell line HepG2-A16-CD81EGFP
- Condition summary: human, HepG2-A16-CD81EGFP cells; read-out: INHIBITION
Observed property: cytotoxicity at 10 µM (%)

- CCOC(=O)N1C[C@@H]2CC[C@H]1CN(Cc1ccccc1)C2: 2.7
- Cc1cc(C(=O)N2CCCN(Cc3cnn(C(C)C)c3)CC2)no1: 0.243
- COCc1ncc(CN2CC[C@@](C)(O)[C@@H](Cc3ccccc3)C2)cn1: 12.1
- c1ccc(-n2nc(CNC3CCc4ncnn4C3)c3c2CCC3)cc1 (configuration not stated): -12.9
- CCC(c1ccncc1)N(C)S(C)(=O)=O (configuration not stated): -5.98
- Cc1nc(C)n(CC2CCCN(Cc3cccc4c3OCCO4)C2)n1 (configuration not stated): -5.23
- Cc1ccc(-c2nc(CN3CCOC(Cn4cccn4)C3)cs2)o1 (configuration not stated): -8.86
- CCC(Nc1cccc(OC)c1)C(=O)NCc1nc(C)cc(=O)[nH]1 (configuration not stated): 4.91
- Cc1nnc(CN2CCCC2c2cccc(Br)c2)o1 (configuration not stated): -3.51
- CS(=O)(=O)N1CCC2(CCCN(Cc3ccccn3)C2)C1 (configuration not stated): -148
- CCn1cc(NC(=O)NCC(O)COc2ccccc2)cn1 (configuration not stated): -8.6
- Cc1cccc2c1NC1(CCCC1)NC2=O: -48.5

* * *

- Assay comment: Toxicity liver stage against HepG2, at 10uM
- Format: cell-based
- Parameters: test concentration 10 uM, cell line HepG2-A16-CD81EGFP
- Condition summary: human, HepG2-A16-CD81EGFP cells; read-out: INHIBITION
# reported cytotoxicity at 10 µM; entries follow
Observed property: cytotoxicity at 10 µM (%)

• COc1ccc(N2CCN(C(=O)CCn3nccc3C)CC2(C)C)cc1 = 57.1
• CCc1nc(CN2CCCC(NCCn3cncn3)C2)no1 (configuration not stated) = -7.24
• COCCn1ccc2cc(C(=O)N3CCN(S(C)(=O)=O)CC3)ccc21 = -6.63
• CN(Cc1n[nH]c(=O)n1Cc1ccccc1F)S(C)(=O)=O = -4.98
• O=C(CCc1ccc(-c2ccccc2)[nH]1)N1CCCC(n2ccnc2)C1 (configuration not stated) = -15.7
• N#CC1(C(=O)N2Cc3cc(-c4cc[nH]n4)ccc3C2c2cnco2)CC1 (configuration not stated) = 25.5
• COc1cc2cc(C(=O)O)n(C)c2c(OC)c1OC = 12.8
• O=C(O)c1nnn(-c2ccc(OC(F)(F)F)cc2)c1-c1ccncc1 = -5.85
• CN(C)C(=O)N1CCN(C(=O)c2ccc(Cl)c(Cl)c2)C(C)(C)C1 = -4.71
• CC(C)c1noc(CCC(=O)Nc2cc(F)ccc2F)n1 = -15.4
• CCN1CCN(c2ccc(CNC(=O)c3sccc3C)cn2)CC1 = -17.8
• COCCN1CCN(CCCS(=O)(=O)c2ccccc2)CC1C (configuration not stated) = -9.31
• CN(C)C(=O)[C@H]1C[C@H]2OCC[C@H]2N(Cc2ccc3ccccc3n2)C1 = -55.9
• CCCc1cc(C(=O)N(C)Cc2cnn(-c3cccc(OC)c3)c2)[nH]n1 = -2.4
• Cc1nn(C)c(Cl)c1S(=O)(=O)N(CC(N)=O)CC(C)C = 8.18
• CCOCCCn1c(NC(=O)c2cnn(C)c2)nc2ccccc21 = -12.1
• CCc1ocnc1C(=O)N1CCCC1c1noc(C(C)C)n1 (configuration not stated) = -8.69
• O=C(c1cncs1)N1CCCC1c1ccn[nH]1 (configuration not stated) = -11.9
• CNC(=O)CN1C(=O)CN(C(=O)COC)CCC(OC)c2ccccc21 (configuration not stated) = -8.12
• COc1cc(CNc2cnn(CCN3CCOCC3)c2)cc(OC)c1 = -7.38
• CN(C)C(=O)NCc1ncn2c1CN(S(C)(=O)=O)CCC2 = 11
• Cc1nc(C)n(CC2CN(Cc3cccc4ccccc34)CCO2)n1 (configuration not stated) = -2.64

* * *

- Assay comment: Toxicity liver stage against HepG2, at 10uM
- Format: cell-based
- Design: test concentration 10 uM, cell line HepG2-A16-CD81EGFP
- Condition summary: human, HepG2-A16-CD81EGFP cells; read-out: INHIBITION
# reported cytotoxicity at 10 µM; entries follow
Observed property: cytotoxicity at 10 µM (%)

• CCC(=O)N1CCC2(COCc3cnc(NCc4ccco4)nc32)C1 (stereo not given) = -12.9
• CCOc1ncccc1NC(=O)N1CCCC(CNC(N)=O)C1 (stereo not given) = -11.1
• Cc1cnc(N2CCN3C[C@H](OCc4ccccn4)C[C@H]3C2)nc1 = -1.68
• CCOCC(=O)NC1(c2nc(C)cs2)CCCC1 = -12.7
• O=C(NC1CCC1)c1cccc(S(=O)(=O)NCc2nc(C3CC3)no2)c1 = -0.0264
• CNc1ncc(CN(C)C(=O)[C@@]23CNC[C@@H]2CN(C2CCCC2)C3)cn1 = 0.153
• CN(Cc1ccccc1)C(=O)CCN1CCC2(CC1)[C@H](O)C[C@@H]2O = -7.55
• Cc1cc(S(=O)(=O)N2CCC(S(C)(=O)=O)C2)ccc1F (stereo not given) = 0.246
• CCCOCC1CCN(C(=O)Cn2cccc(C(F)(F)F)c2=O)C1 (stereo not given) = -16.3
• COC(=O)N1CCC(CNC(=O)C2CC2)CC1 = -2.82
• CC1CN(C)c2ccccc2CN1C(=O)c1ccc[nH]1 (stereo not given) = -28.4
• CN(C)C1CCCN(Cc2cccc(Cn3cccn3)c2)CC1 (stereo not given) = -12.6
• O=C(NCCS(=O)(=O)N1CCc2ccccc21)c1c(O)cc(F)cc1F = 0.217
• Cc1cc2n(n1)CC(CNC1CCN(C(=O)c3ccco3)CC1)CN2 (stereo not given) = 4
• CCOCCCn1c(NC(=O)c2cc(C)on2)nc2ccccc21 = -31.3

* * *

# reported cytotoxicity at 10 µM; entries follow
- Assay comment: Toxicity liver stage against HepG2, at 10uM
- Format: cell-based
- Design: test concentration 10 uM, cell line HepG2-A16-CD81EGFP
- Condition summary: human, HepG2-A16-CD81EGFP cells; read-out: INHIBITION
Observed property: cytotoxicity at 10 µM (%)

• CCC(Oc1ccc(N(C)S(C)(=O)=O)cc1)C(=O)NC (stereo not given) = 0.0646
• Cc1nc(CN2C(=O)C[C@@H]3[C@@H]2CCN3S(C)(=O)=O)cs1 = -131
• CC(C)Cn1cc2nc(N3CCCC(C)C3)[nH]cc-2c1=O (stereo not given) = 2.22
• CCc1nc(C)c(C2CC(=O)Nc3c2c(C(C)(C)C)nn3C)[nH]1 (stereo not given) = 2.63
• CCOC(=O)C1CCCN(Cc2c[nH]nc2-c2cc3ccccc3o2)C1 (stereo not given) = 3.16
• CC(Cn1cccn1)NCc1nc(-c2ccsc2)no1 (stereo not given) = -8.42
• O=C(NCc1nncn1C1CC1)c1cccnc1Oc1ccccc1 = 1.57
• CC(OCC1CC1)C(=O)NCCC(=O)Nc1ccccn1 (stereo not given) = -5.72
• CNC(=O)C1(CCCc2cccnc2)CCCCN1 (stereo not given) = 2.34
• O=C(O)CCc1nc2nccc(C(F)(F)F)n2n1 = -1.36

* * *

- Assay comment: Toxicity liver stage against HepG2, at 10uM
- Assay type: cell-based
- Design: test concentration 10 uM, cell line HepG2-A16-CD81EGFP
- Condition summary: human, HepG2-A16-CD81EGFP cells; read-out: INHIBITION
Observed property: cytotoxicity at 10 µM (%)

* Cc1cn([C@@H]2CC3(CCNCC3)OC[C@@]2(C)O)c(=O)[nH]c1=O | -5.6
* c1ccc(N2CCCC2)c(NCc2ccncc2)c1 | -0.289
* O=C(c1ccc(F)cc1Cl)N1CCn2c(nnc2C(F)(F)F)C1 | -6.7
* CCn1ccnc1CN1CCNCC1C (stereo unspecified) | -3.03
* COc1ccccc1OCc1cc(C(=O)N2CC(O)C2)n[nH]1 | -1.02
* Cc1nn(C(C)C)c(C)c1NC(=O)c1ccncc1 | -17.3

* * *

# reported cytotoxicity at 10 µM; entries follow
- Assay comment: Toxicity liver stage against HepG2, at 10uM
- Format: cell-based
- Set-up: test concentration 10 uM, cell line HepG2-A16-CD81EGFP
- Condition summary: human, HepG2-A16-CD81EGFP cells; read-out: INHIBITION
Observed property: cytotoxicity at 10 µM (%)

- CC(=O)N1CCN([C@@H]2CN(C(=O)Cc3ccccc3C)C[C@H]2O)CC1: -6.94
- O=C(c1nc(Cc2c[nH]c3ccccc23)no1)N1CCOCC1: 11.1
- Cc1nn(C)c2c(=O)n(C(C)C)c(NCC3CCCO3)nc12 (centres undefined): 13.9
- Cc1noc(C)c1CN(C)Cc1nc(N)c2ccccc2n1: 8.85
- COCC1COCCC12CCN(S(=O)(=O)c1ccc(C)cc1)CC2 (centres undefined): 4.79
- Cc1nc(C)c(CC(=O)Nc2nnc(C(C)C)s2)c(=O)[nH]1: -7.16
- CN1CCOC[C@H]1c1nc(-c2ccc(F)cc2F)c[nH]1: -5.66
- CCN1CCN(C(=O)COCc2cccc(OC)c2)CC1: -11.5
- CC(C)c1noc(CCCC(=O)N2CCN(Cc3ccccn3)CC2)n1: -1.79
